Test system: HSSY-II tumor spheroid viability
PROTOCOL_DESCRIPTION: Anticancer human tumor HSSY-II cell line growth inhibition
CONDITIONS: second compound 1 µM; first compound 0.949 µM; hits give low values; spheroids with HUVEC and MSC
Below, each entry is listed alongside its reported viability, T/C.
Write down the numeric answer in % and omit the unit.

>>> print(df.to_string())
                                   compound  measured_attribute  reported_measurement
0  O=C(c1cc(Cc2n[nH]c(=O)c3ccccc23)ccc1F)N1CCN(C(=O)C2CC2)CC1 + Cn1nnc2c(C(N)=O)ncn2c1=O      viability, T/C                  84.2
1  Cc1sc2c(c1C)C(c1ccc(Cl)cc1)=NC(CC(=O)Nc1ccc(O)cc1)c1nnc(C)n1-2 (centres undefined) + Cn1nnc2c(C(N)=O)ncn2c1=O      viability, T/C                  19.3
2  Cn1ncnc1[C@H]1c2n[nH]c(=O)c3cc(F)cc(c23)N[C@@H]1c1ccc(F)cc1 + Cn1nnc2c(C(N)=O)ncn2c1=O      viability, T/C                  10.8

Attention now turns to another entry.
Indicate the recorded viability, T/C value for this compound: CNCc1ccc(-c2cc(-c3nc(-c4ccc(S(=O)(=O)C(C)C)cc4)cnc3N)on2)cc1 + Cn1nnc2c(C(N)=O)ncn2c1=O
1.51

----------
Parameter: viability, T/C. Scope: all listed entries.
System: HSSY-II tumor spheroid viability
PROTOCOL_DESCRIPTION: Anticancer human tumor HSSY-II cell line growth inhibition
CONDITIONS: second compound 0.0003 µM; first compound 0.316 µM; hits give low values; spheroids with HUVEC and MSC
// units = %; emit number, no label

A selection of reference data follows.
COMPOUND	READING_UNIT	viability, T/C
CC1COCCN1c1cc(-c2ccnn2C)c2ccnc(-c3ccn[nH]3)c2n1 (centres undefined) + COc1cc2c(cc1O)CCNC21CSC2c3c(OC(C)=O)c(C)c4c(c3C(COC1=O)N1C(O)C3Cc5cc(C)c(OC)c(O)c5C(C21)N3C)OCO4	%	3.44
[2H]c1nc(C)nc([2H])c1-c1cc(NC[C@@H](C)c2cccc3c(C(=O)NC)ccnc23)ncn1 + COc1cc2c(cc1O)CCNC21CSC2c3c(OC(C)=O)c(C)c4c(c3C(COC1=O)N1C(O)C3Cc5cc(C)c(OC)c(O)c5C(C21)N3C)OCO4	%	17.8
CC(C)n1c(=O)n(C)c2cnc3cc(F)c(-c4ccc(OCCCN5CCCCC5)nc4)cc3c21 + COc1cc2c(cc1O)CCNC21CSC2c3c(OC(C)=O)c(C)c4c(c3C(COC1=O)N1C(O)C3Cc5cc(C)c(OC)c(O)c5C(C21)N3C)OCO4	%	18

Consider the additional compound presented here.
Give viability, T/C for Cc1cc(C)c(CNC(=O)c2cc(-c3ccc(CN4CCOCC4)cc3)cc3c2cnn3C2CCCC2)c(=O)[nH]1 + COc1cc2c(cc1O)CCNC21CSC2c3c(OC(C)=O)c(C)c4c(c3C(COC1=O)N1C(O)C3Cc5cc(C)c(OC)c(O)c5C(C21)N3C)OCO4 tested on HSSY-II tumor spheroid viability.
13.4

----------
Test system: HSSY-II tumor spheroid viability
PROTOCOL_DESCRIPTION: Anticancer human tumor HSSY-II cell line growth inhibition;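 also: spheroids exposed to compounds for seven days before reading; percent of DMSO vehicle control viability so 100% = untreated level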
CONDITIONS: second compound 30 pM; first compound 3.16 µM; hits give low values; spheroids with HUVEC and MSC
MEASURED_ATTRIBUTE: viability, T/C (%)
Please respond with the number in % and leave the unit unwritten.

Solved cases (2 shown):
MOLECULE	viability, T/C, %
CC(C)n1c(=O)n(C)c2cnc3cc(F)c(-c4ccc(OCCCN5CCCCC5)nc4)cc3c21 + COc1cc2c(cc1O)CCNC21CSC2c3c(OC(C)=O)c(C)c4c(c3C(COC1=O)N1C(O)C3Cc5cc(C)c(OC)c(O)c5C(C21)N3C)OCO4	91.9
[2H]c1nc(C)nc([2H])c1-c1cc(NC[C@@H](C)c2cccc3c(C(=O)NC)ccnc23)ncn1 + COc1cc2c(cc1O)CCNC21CSC2c3c(OC(C)=O)c(C)c4c(c3C(COC1=O)N1C(O)C3Cc5cc(C)c(OC)c(O)c5C(C21)N3C)OCO4	94.2

Name the recorded viability, T/C of the molecule listed here: COc1cc(C)[nH]c(=O)c1CN1CCc2c(Cl)cc(C(OC)C3COC3)c(Cl)c2C1=O (stereo unspecified) + COc1cc2c(cc1O)CCNC21CSC2c3c(OC(C)=O)c(C)c4c(c3C(COC1=O)N1C(O)C3Cc5cc(C)c(OC)c(O)c5C(C21)N3C)OCO4
86

For the molecule COc1ccc([C@@H](O)c2cc(-c3ncnc4cc(N5CCOCC5)ccc34)c(F)cc2Cl)nn1 + COc1cc2c(cc1O)CCNC21CSC2c3c(OC(C)=O)c(C)c4c(c3C(COC1=O)N1C(O)C3Cc5cc(C)c(OC)c(O)c5C(C21)N3C)OCO4 , give its measured viability, T/C value.
29.7

Kindly indicate its recorded viability, T/C. Item: CC1COCCN1c1cc(-c2ccnn2C)c2ccnc(-c3ccn[nH]3)c2n1 (stereo unspecified) + COc1cc2c(cc1O)CCNC21CSC2c3c(OC(C)=O)c(C)c4c(c3C(COC1=O)N1C(O)C3Cc5cc(C)c(OC)c(O)c5C(C21)N3C)OCO4
3.45

Answer with the recorded viability, T/C for the molecule listed here: Cc1cc(C)c(CNC(=O)c2cc(-c3ccc(CN4CCOCC4)cc3)cc3c2cnn3C2CCCC2)c(=O)[nH]1 + COc1cc2c(cc1O)CCNC21CSC2c3c(OC(C)=O)c(C)c4c(c3C(COC1=O)N1C(O)C3Cc5cc(C)c(OC)c(O)c5C(C21)N3C)OCO4
107

----------
Test system: HSSY-II tumor spheroid viability
PROTOCOL_DESCRIPTION: Anticancer human tumor HSSY-II cell line growth inhibition;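 also: spheroids exposed to compounds for seven days before reading; percent of DMSO vehicle control viability so 100% = untreated level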
CONDITIONS: second compound 0.003 µM; first compound 3 µM; hits give low values; spheroids with HUVEC and MSC
MEASURED_ATTRIBUTE: viability, T/C (%)
Provide the reading as a plain figure in %.

MOLECULE	MEASURED_ATTRIBUTE	READING_UNIT	REPORTED_MEASUREMENT
Cn1ncnc1[C@H]1c2n[nH]c(=O)c3cc(F)cc(c23)N[C@@H]1c1ccc(F)cc1 + CC[C@@]1(O)C(=O)OCc2c1cc1n(c2=O)Cc2cc3c(CN(C)C)c(O)ccc3nc2-1	viability, T/C	%	4.32
Cn1ncnc1[C@H]1c2n[nH]c(=O)c3cc(F)cc(c23)N[C@@H]1c1ccc(F)cc1 + COc1cc2c(cc1O)CCNC21CSC2c3c(OC(C)=O)c(C)c4c(c3C(COC1=O)N1C(O)C3Cc5cc(C)c(OC)c(O)c5C(C21)N3C)OCO4	viability, T/C	%	0.26

Now take the following molecule into account.
Input O=C(c1cc(Cc2n[nH]c(=O)c3ccccc23)ccc1F)N1CCN(C(=O)C2CC2)CC1 + COc1cc2c(cc1O)CCNC21CSC2c3c(OC(C)=O)c(C)c4c(c3C(COC1=O)N1C(O)C3Cc5cc(C)c(OC)c(O)c5C(C21)N3C)OCO4 , output reported viability, T/C.
0.22

----------
System: HSSY-II tumor spheroid viability
PROTOCOL_DESCRIPTION: Anticancer human tumor HSSY-II cell line growth inhibition;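 also: spheroids exposed to compounds for seven days before reading; percent of DMSO vehicle control viability so 100% = untreated level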
CONDITIONS: second compound 10 µM; first compound 0.3 µM; hits give low values; spheroids with HUVEC and MSC
MEASURED_ATTRIBUTE: viability, T/C

# count of solved cases: 3
>>> df
                                   compound  reported_measurement
0  Cc1sc2c(c1C)C(c1ccc(Cl)cc1)=NC(CC(=O)Nc1ccc(O)cc1)c1nnc(C)n1-2 (centres undefined) + Cn1nnc2c(C(N)=O)ncn2c1=O                 32.6%
1  O=C(c1cc(Cc2n[nH]c(=O)c3ccccc23)ccc1F)N1CCN(C(=O)C2CC2)CC1 + Cn1nnc2c(C(N)=O)ncn2c1=O                 93.3%
2  Cn1ncnc1[C@H]1c2n[nH]c(=O)c3cc(F)cc(c23)N[C@@H]1c1ccc(F)cc1 + Cn1nnc2c(C(N)=O)ncn2c1=O                 10.5%

# return viability, T/C for CNCc1ccc(-c2cc(-c3nc(-c4ccc(S(=O)(=O)C(C)C)cc4)cnc3N)on2)cc1 + Cn1nnc2c(C(N)=O)ncn2c1=O , test system: HSSY-II tumor spheroid viability
5.47%

----------
Test system: HSSY-II tumor spheroid viability
PROTOCOL_DESCRIPTION: Anticancer human tumor HSSY-II cell line growth inhibition;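 also: spheroids exposed to compounds for seven days before reading; percent of DMSO vehicle control viability so 100% = untreated level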
CONDITIONS: second compound 30 pM; first compound 0.0316 µM; hits give low values; spheroids with HUVEC and MSC
MEASURED_ATTRIBUTE: viability, T/C

Study these solved cases before continuing.
COMPOUND	REPORTED_MEASUREMENT
CC(C)n1c(=O)n(C)c2cnc3cc(F)c(-c4ccc(OCCCN5CCCCC5)nc4)cc3c21 + COc1cc2c(cc1O)CCNC21CSC2c3c(OC(C)=O)c(C)c4c(c3C(COC1=O)N1C(O)C3Cc5cc(C)c(OC)c(O)c5C(C21)N3C)OCO4	128%
[2H]c1nc(C)nc([2H])c1-c1cc(NC[C@@H](C)c2cccc3c(C(=O)NC)ccnc23)ncn1 + COc1cc2c(cc1O)CCNC21CSC2c3c(OC(C)=O)c(C)c4c(c3C(COC1=O)N1C(O)C3Cc5cc(C)c(OC)c(O)c5C(C21)N3C)OCO4	98%
COc1ccc([C@@H](O)c2cc(-c3ncnc4cc(N5CCOCC5)ccc34)c(F)cc2Cl)nn1 + COc1cc2c(cc1O)CCNC21CSC2c3c(OC(C)=O)c(C)c4c(c3C(COC1=O)N1C(O)C3Cc5cc(C)c(OC)c(O)c5C(C21)N3C)OCO4	117%
Cc1cc(C)c(CNC(=O)c2cc(-c3ccc(CN4CCOCC4)cc3)cc3c2cnn3C2CCCC2)c(=O)[nH]1 + COc1cc2c(cc1O)CCNC21CSC2c3c(OC(C)=O)c(C)c4c(c3C(COC1=O)N1C(O)C3Cc5cc(C)c(OC)c(O)c5C(C21)N3C)OCO4	106%
COc1cc(C)[nH]c(=O)c1CN1CCc2c(Cl)cc(C(OC)C3COC3)c(Cl)c2C1=O (stereo unspecified) + COc1cc2c(cc1O)CCNC21CSC2c3c(OC(C)=O)c(C)c4c(c3C(COC1=O)N1C(O)C3Cc5cc(C)c(OC)c(O)c5C(C21)N3C)OCO4	132%

As a next step, examine the compound that follows.
Provide measured viability, T/C on HSSY-II tumor spheroid viability for CC1COCCN1c1cc(-c2ccnn2C)c2ccnc(-c3ccn[nH]3)c2n1 (stereo unspecified) + COc1cc2c(cc1O)CCNC21CSC2c3c(OC(C)=O)c(C)c4c(c3C(COC1=O)N1C(O)C3Cc5cc(C)c(OC)c(O)c5C(C21)N3C)OCO4 please.
14.4%
